// data source = PubChem BioAssay (NCATS)

# measurementTarget: Rap guanine nucleotide exchange factor 3 (Homo sapiens)
# experimentSummary: Counterscreen qHTS for antagonist of cAMP-regulated guanine nucleotide exchange factor 3 (EPAC1) (AID 1645888);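 also: fluorescence loss as bound BODIPY-GDP is released from Rap1B; % of control where 0% means no effect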
# studyConditions: Rap1B-BODIPY-GDP nucleotide exchange, fluorescence; series mostly up to 154 µM
Results filed as inconclusive are left out. The source made the active and inactive calls. Calls follow the shape of the dose curve; as a rule, active = well fitted inhibition curve with a large enough effect; inconclusive = small, poorly fitted or top-dose-only effect; inactive = no such curve, though single readings can be large or run the other way.
measurementKind: activity change, negative = inhibition

Recorded activity change, negative = inhibition, per entry:
COc1ccc(Cl)cc1NC(=O)CN1c2ccccc2CC1C (stereo unspecified) = inactive
CCOc1ccccc1NC(=O)C1COc2ccccc2O1 (stereo unspecified) = inactive
CC(C)C[C@H]1COCCS(=O)(=O)N1Cc1ccc(Cl)c(Cl)c1 = -4.43% [at 30.8 µM] (inactive)
Cc1nnc(SCCn2c(N3CCC(Cc4ccccc4)CC3)nc3c2c(=O)[nH]c(=O)n3C)s1 = inactive
CCCCCN(C(=O)CCC(=O)OCC(=O)N1CCC(C)CC1)c1c(N)n(CCCC)c(=O)[nH]c1=O = inactive

What activity change, negative = inhibition value was documented for this compound, CCC(=O)NC(c1cccs1)c1cc([N+](=O)[O-])c2cccnc2c1O (stereo unspecified) ?
inactive

Return reported activity change, negative = inhibition; argument: CCCn1c(=O)n(C)c(=O)c2c(SCC(=O)NCc3ccco3)nc(C3CC3)nc21
inactive

Field request: activity change, negative = inhibition | item: Cc1ccc(Nc2c(-c3ccccn3)nc3cccc(C)n23)cc1
inactive

For the compound Cc1nnc(SCC(=O)NCc2ccccc2F)c2nn(-c3ccc(Cl)cc3)c(C)c12 , what activity change, negative = inhibition is on record?
inactive

// lookup activity change, negative = inhibition for C[C@@H]1COC(=O)[C@H](NC(=O)OCC2c3ccccc3-c3ccccc32)C/C=C\C[C@@H](CC(=O)N[C@H](CO)Cc2ccccc2)C(=O)N1
-6.46% [at 30.8 µM] (inactive)

----------
# measurementTarget: Rap guanine nucleotide exchange factor 3 (Homo sapiens) (UniProt O95398)
# Sequence (O95398 whole entry, looked up): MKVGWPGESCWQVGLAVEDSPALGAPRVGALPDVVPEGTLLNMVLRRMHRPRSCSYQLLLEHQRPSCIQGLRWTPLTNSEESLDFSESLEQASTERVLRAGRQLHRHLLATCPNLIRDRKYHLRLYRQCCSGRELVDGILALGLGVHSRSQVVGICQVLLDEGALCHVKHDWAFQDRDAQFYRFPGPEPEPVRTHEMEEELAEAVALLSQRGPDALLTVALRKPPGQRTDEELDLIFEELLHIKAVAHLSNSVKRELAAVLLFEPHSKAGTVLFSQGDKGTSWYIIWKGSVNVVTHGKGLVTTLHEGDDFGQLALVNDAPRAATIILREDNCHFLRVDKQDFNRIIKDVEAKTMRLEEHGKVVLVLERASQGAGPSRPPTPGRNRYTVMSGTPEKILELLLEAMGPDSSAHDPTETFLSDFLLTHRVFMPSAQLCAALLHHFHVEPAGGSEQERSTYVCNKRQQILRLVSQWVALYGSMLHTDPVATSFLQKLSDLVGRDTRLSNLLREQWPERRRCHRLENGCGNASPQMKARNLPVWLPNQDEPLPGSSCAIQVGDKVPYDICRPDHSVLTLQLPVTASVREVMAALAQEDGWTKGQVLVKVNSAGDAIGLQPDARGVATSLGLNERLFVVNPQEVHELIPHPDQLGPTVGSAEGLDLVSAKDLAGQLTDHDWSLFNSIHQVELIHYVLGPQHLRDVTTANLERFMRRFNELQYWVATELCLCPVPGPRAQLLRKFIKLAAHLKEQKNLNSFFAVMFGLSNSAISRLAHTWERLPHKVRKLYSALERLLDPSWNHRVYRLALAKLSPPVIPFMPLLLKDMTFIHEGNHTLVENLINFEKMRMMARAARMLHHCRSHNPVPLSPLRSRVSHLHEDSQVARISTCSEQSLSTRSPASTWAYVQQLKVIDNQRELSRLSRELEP
# experimentSummary: Counterscreen qHTS for antagonist of cAMP-regulated guanine nucleotide exchange factor 3 (EPAC1) (AID 1645888);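 also: fluorescence loss as bound BODIPY-GDP is released from Rap1B; % of control where 0% means no effect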
# studyConditions: Rap1B-BODIPY-GDP nucleotide exchange, fluorescence; series mostly up to 154 µM
Records with an inconclusive call do not appear. Active and inactive are the calls of the source. Calls come from the whole dose curve; as a rule, active = well fitted inhibition curve with a large enough effect; inconclusive = small, poorly fitted or top-dose-only effect; inactive = no such curve, though single readings can be large or run the other way.
measurementKind: activity change, negative = inhibition

Completed entries (count: 6):
COc1ccc(-c2nc3ccccc3nc2-c2ccccc2)cc1 = inactive
COc1ccccc1CN(C)C(=O)C(c1ccccc1)c1ccccc1 = inactive
COc1cc(/C=C/[N+](=O)[O-])ccc1OCc1cccc(C(=O)O)c1 = inactive
Cc1cccc(NC(=S)N2CCN(S(=O)(=O)c3cccc(F)c3)CC2)c1 = inactive
Cc1ccc(-c2nn(-c3ccccc3)cc2C=C2SC(=S)N(CCS(=O)(=O)O)C2=O)cc1 = -16.5% [at 30.8 µM] (inactive)
CC(C)n1cc(/C=C/c2cc[n+](C)cc2)c2ccccc21 = inactive

Field request: activity change, negative = inhibition | item: O=C(NCc1ccco1)c1c2c(nc3ccccc13)CCC2
-4.49% [at 30.8 µM] (inactive)

activity change, negative = inhibition for CCCCCC(=O)Nc1cccc(C2=NOC3(C2)C[C@@H](C(N)=O)N(C(=O)CC(c2ccccc2)c2ccccc2)C3)c1 (stereo partly specified) ?
-21.4% [at 30.8 µM] (inactive)

Which activity change, negative = inhibition value is on record for Cc1cc(Br)cc(C=Nc2ccc(N3CCOCC3)cc2)c1O ?
inactive

Quick one: activity change, negative = inhibition of COc1ccc(S(=O)(=O)N2CCCC2)c(Cl)c1Cl ?
12.2% [at 30.8 µM] (inactive)

// lookup activity change, negative = inhibition for COn1c2c(c3c4nonc4ccc31)CCCC2
inactive

----------
# measurementTarget: Cytochrome P450 3A4 (Homo sapiens)
# experimentSummary: qHTS for inhibitors of CYP3A4 against the NCATS DSHEA and TCM libraries (AID 1919971)
# studyConditions: recombinant CYP3A4 enzyme activity, luminescence qHTS; series mostly up to 34.1 µM
Inconclusive results are not listed. Calls of active or inactive are those of the source. Calls follow the shape of the dose curve; as a rule, active = well fitted inhibition curve with a large enough effect; inconclusive = small, poorly fitted or top-dose-only effect; inactive = no such curve, though single readings can be large or run the other way.
Please reply with one of these outcomes: y (active), n (inactive)

Check out these entries, answers already filled in.
CC(C)=CCC[C@](C)(OC1OC(COC2OCC(O)C(O)C2O)C(O)C(O)C1O)[C@H]1CC[C@]2(C)[C@@H]1[C@H](O)C[C@@H]1[C@@]3(C)CC[C@H](OC4OC(CO)C(O)C(O)C4OC4OC(CO)C(O)C(O)C4O)C(C)(C)[C@@H]3CC[C@]12C (stereo partly drawn) = n
Cc1ccc(C(C)C)cc1 = n
CC(C)=CCC[C@](C)(O[C@@H]1O[C@H](CO)[C@@H](O)[C@H](O)[C@H]1O)[C@H]1CC[C@]2(C)[C@@H]1[C@H](O)C[C@@H]1[C@@]3(C)CC[C@H](O[C@@H]4O[C@H](CO)[C@@H](O)[C@H](O)[C@H]4O[C@@H]4O[C@H](CO)[C@@H](O)[C@H](O)[C@H]4O)C(C)(C)[C@@H]3CC[C@]12C = n
C=C1C[C@@]23CC[C@H]4[C@@](C)(CCC[C@@]4(C)C(=O)O[C@@H]4O[C@H](CO)[C@@H](O)[C@H](O)[C@H]4O)[C@@H]2CC[C@]1(O[C@@H]1O[C@H](CO)[C@@H](O)[C@H](O[C@@H]2O[C@H](CO)[C@@H](O)[C@H](O)[C@H]2O)[C@H]1O[C@@H]1O[C@@H](C)[C@H](O)[C@@H](O)[C@H]1O)C3 = n
CCCCCCCCCCCCCC(=O)OCC(O)CO (stereo not drawn) = n
CC1=CCC(=C(C)C)CC1 = y

What call does the record list for CC12CC3(O)OC(O1)C1(COC(=O)c4ccc(O)cc4)C3CC21OC1OC(CO)C(O)C(O)C1O (stereo not drawn) ?
n

Recorded test outcome, item O=C(/C=C/c1ccc(O)c(O)c1)O[C@@H]1C[C@](O)(C(=O)O)C[C@@H](O)[C@H]1O
n

# outcome recorded in this test, key = COc1ccc(-c2coc3cc(O[C@@H]4O[C@H](CO)[C@@H](O)[C@H](O)[C@H]4O)ccc3c2=O)cc1
n

For COc1cc(/C=C/c2ccccc2)oc(=O)c1 , which call appears in the assay record?
n

What outcome does the record of this test show for CC(C)=CCCC(C)=CCCC(C)=CCCC=C(C)CCC=C(C)CCC=C(C)C ?
n

----------
# measurementTarget: Rap guanine nucleotide exchange factor 3 (Homo sapiens) (UniProt O95398)
# experimentSummary: Counterscreen qHTS for antagonist of cAMP-regulated guanine nucleotide exchange factor 3 (EPAC1) (AID 1645888);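 also: fluorescence loss as bound BODIPY-GDP is released from Rap1B; % of control where 0% means no effect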
# studyConditions: Rap1B-BODIPY-GDP nucleotide exchange, fluorescence; series mostly up to 154 µM
Results filed as inconclusive are left out. Active and inactive are the calls of the source. The call rests on the fitted dose curve; in most records, active means well fitted inhibition curve with a large enough effect; inconclusive means small, poorly fitted or top-dose-only effect; inactive means no such curve, though single readings can be large or run the other way.
measurementKind: activity change, negative = inhibition

COc1ccc(CN2C(=O)c3cccnc3C2O)cc1 (stereo not given) = inactive
Cc1ccc(S(=O)(=O)C2(C(=O)Nc3ccc(Br)cc3)CC2)cc1 = -6.73% [at 30.8 µM] (inactive)
ON=C(c1ccccc1)c1ccc2c3c(cccc13)CC2 = inactive
COc1cc(/C=C2/SC(=S)N(CC(=O)O)C2=O)ccc1OC(=O)c1cccs1 = inactive
S=c1[nH]nc(-c2cc(-c3ccccc3)n[nH]2)n1/N=C/c1ccc(Cl)c(Cl)c1 = -11.9% [at 30.8 µM] (inactive)

So what's the measured activity change, negative = inhibition for this one? C/C(CC(=O)Nc1ccc2ccccc2c1)=N\NC(=O)c1ccc(O)c(O)c1
inactive

# query: activity change, negative = inhibition of entry Cc1cc(C)cc(OCCSc2nc(-c3ccc(C(C)(C)C)cc3)nc3cc(=O)[nH]n23)c1
inactive

Find the recorded activity change, negative = inhibition belonging to COc1ccc(Nc2cc(C(=O)NCCCN3CCN(c4ccccc4F)CC3)c3ccccc3n2)c(OC)c1 and report it.
inactive

// returns reported activity change, negative = inhibition for input OCc1ccc(-c2ccccc2)c(-c2ccccc2)c1
inactive

Quick one: activity change, negative = inhibition of COCCn1c(SCc2ccccc2F)nc2ccccc2c1=O ?
-6.24% [at 30.8 µM] (inactive)

----------
# experimentSummary: qHTS for differential inhibitors of proliferation of Plasmodium falciparum line Dd2 (AID 1882); also: nearly all actives have a fitted effect of over 65% in size
# studyConditions: Plasmodium falciparum Dd2 proliferation inhibition; series mostly up to 28.7 µM
Inconclusive results are not listed. Calls of active or inactive are those of the source. Calls follow the shape of the dose curve; as a rule, active = well fitted inhibition curve with a large enough effect; inconclusive = small, poorly fitted or top-dose-only effect; inactive = flat fitted curve, though single readings scatter.
# valid calls are active, inactive; nothing else

C=C[C@@H]1CN2CC[C@@H]1C[C@@H]2[C@H](O)c1ccnc2ccc(OC)cc12 = active

Would you mind telling me which call this test gave O=S(=O)(O)C1CCNCC1 ?
inactive

----------
# System: CP265
# experimentSummary: qHTS profiling for inhibitors of Plasmodium falciparum proliferation (AID 504749); also: nearly all actives have a fitted effect of over 60% in size
# studyConditions: P. falciparum in erythrocytes, SYBR Green DNA, 72 h; series mostly up to 28.7 µM
Results filed as inconclusive are left out. The source made the active and inactive calls. The call rests on the fitted dose curve; in most records, active means well fitted inhibition curve with a large enough effect; inconclusive means small, poorly fitted or top-dose-only effect; inactive means flat fitted curve, though single readings scatter.
Reply using exactly one outcome from active, inactive

CCC(C)n1ncn(-c2ccc(N3CCN(c4ccc(OCC5COC(Cn6cncn6)(c6ccc(Cl)cc6Cl)O5)cc4)CC3)cc2)c1=O (centres undefined) = inactive

Fill in: this test's call for CO[C@@H]1[C@@H](OC2OC(C)C(OC3CC(C)(O)C(OC(=O)CC(C)C)C(C)O3)C(N(C)C)C2O)[C@@H](CC=O)C[C@@H](C)C(=O)/C=C\C2O[C@H]2C[C@@H](C)OC(=O)C[C@H]1OC(C)=O (some centres undefined) is ___
active

Could you check what this test reported for CCN1/C(=C/C=C/C=C/c2sc3ccccc3[n+]2CC)Sc2ccccc21 ?
active

Fill in: this test's call for NC1=NC(S)C2N=CN=C2N1 (centres undefined) is ___
inactive
